Measured values drawn from patent US5132432A for this set.

- assay text: Spectral properties (absorption/emission) of new pyrenyloxy sulfonic acid dyes, Table 4
- Format: physicochemical
- measurement context: 50 mM aqueous potassium phosphate buffer at pH 8.0
Counter-ions that a name gives are not always drawn.
endpoint label: Emission at 514 nm

In [3]: df
Out[3]:
                                   compound      endpoint_label        result
0  NCCCCCNC(=O)COc1cc(S(=O)(=O)O)c2ccc3c(S(=O)(=O)O)cc(S(=O)(=O)O)c4ccc1c2c43 [Compound 4, trisodium salt]  Emission at 514 nm  3.9 % of max
1  O=C(O)COc1cc(S(=O)(=O)[O-])c2ccc3c(S(=O)(=O)[O-])cc(S(=O)(=O)[O-])c4ccc1c2c43.[Na+].[Na+].[Na+] [Compound 2]  Emission at 514 nm  5.8 % of max
2  CC(C)(C)OC(=O)N1CCC[C@H]1C(=O)NCCCCCNC(=O)COc1cc(S(=O)(=O)O)c2ccc3c(S(=O)(=O)O)cc(S(=O)(=O)O)c4ccc1c2c43 [Compound 15]  Emission at 514 nm  3.0 % of max
